Hey, just so you know, these numbers are from the SangsterLogP compilation.

RECORDED_CONDITIONS: pH 7.5
ASSAY_ENDPOINT: logD

P = COc1cc(Br)cc(C(=O)NC[C@@H]2CCCN2CCF)c1OC
Q = CCc1cc(Cl)c(O)c(C(=O)NC[C@@H]2CCCN2CCF)c1OC
Problem: Which value of logD is numerically greater: that of P or that of Q ? Lab log: write the label of the selected item as the result.
Solution: Q
(Q: 4.71, P: 3.22)
